Consider the following molecules and their measured MIC readings.
- System: Escherichia coli
- method description: Compound was evaluated for in vitro antibacterial activity against Escherichia coli 078 strain by agar dilution method
- Format: functional
Kindly provide the numeric value in µg/mL only, without the unit symbol.

Some molecules with recorded MIC:
INSERT INTO results (molecule, reported_measurement) VALUES
  ('CC(C)[C@@H](O)C1=C(C(=O)[O-])N2C(=O)[C@H]([C@@H](C)O)C2[C@H]1C.[Na+] (some centres undefined)', 0.049),
  ('CCC(C)[C@@H](O)C1=C(C(=O)[O-])N2C(=O)[C@H]([C@@H](C)O)C2[C@H]1C.[Na+] (some centres undefined)', 0.195),
  ('C[C@H]1C([C@H](O)C(C)(C)C)=C(C(=O)[O-])N2C(=O)[C@H]([C@@H](C)O)C12.[Na+] (some centres undefined)', 0.781);

Proceeding to the next molecule to report its MIC.
What value of MIC has been reported for the following molecule? C[C@H]1C([C@H](O)C2CC2)=C(C(=O)[O-])N2C(=O)[C@H]([C@@H](C)O)C12.[Na+] (some centres undefined)
0.098
